Would you mind telling me the reported pIC50 of each entry?
TEST SYSTEM: His-tagged N-terminal ATP binding domain (amino acid residues 9-236) of HSP90α (Homo sapiens)
PROTOCOL DESCRIPTION: HSP90 inhibitor binding potency: TRF competition binding assay
APPLIED CONDITIONS: Table I; read-out: Hsp90 IC50 Range
pIC50: −log10 of the molar value.

COMPOUND: COc1cccc(C2CCCCC2)c1C1CC(=O)c2c(C)nc(N)nc2C1 (stereo not shown) [Compound 173]
pIC50: < 5.00

COMPOUND: Cc1nc(N)nc2c1C(=O)CC(c1ccccc1-c1ccc(F)cc1F)C2 (stereo not shown)
pIC50: > 6.00

State the recorded pIC50 for every item in the following list.
1. Cc1nc(N)nc2c1C(=O)CC(c1ccccc1-c1cccnc1)C2 (stereo not shown)
2. Cc1nc(N)nc2c1C(=O)CC(c1ccc(F)cc1Oc1ccccc1)C2 (stereo not shown)
3. COc1cncc(-c2ccccc2C2CC(=O)c3c(C)nc(N)nc3C2)c1 (stereo not shown)
4. Cc1nc(N)nc2c1C(=O)CC(c1cccnc1)C2 (stereo not shown)
5. Cc1nc(N)nc2c1C(=O)CC(c1ccccc1-c1ccccc1)C2 (stereo not shown)

Response:
> 6.00
> 6.00
5.00 to 6.00
< 5.00
> 6.00

* * *

TEST SYSTEM: His-tagged N-terminal ATP binding domain (amino acid residues 9-236) of HSP90α (Homo sapiens)
PROTOCOL DESCRIPTION: HSP90 inhibitor binding potency: TRF competition binding assay
APPLIED CONDITIONS: Table I; read-out: Hsp90 IC50 Range
pIC50: −log10 of the molar value.
QUANTITY KIND: pIC50

Please review the entries below; each comes with its answer.
COMPOUND: COc1cccc(Cl)c1C1CC(=O)c2c(C)nc(N)nc2C1 (stereo not drawn)
QUANTITY KIND: pIC50
ENDPOINT VALUE: 5.00 to 6.00
--
COMPOUND: Cc1nc(N)nc2c1C(=O)CC(c1ccccc1-c1cccc(C(N)=O)c1)C2 (stereo not drawn)
QUANTITY KIND: pIC50
ENDPOINT VALUE: 5.00 to 6.00

For the 3 compounds below, give their pIC50 values.
1. Cc1nc(N)nc2c1C(=O)CC(c1ccccc1C1=CCCCC1)C2 (stereo not drawn)
2. Cc1cccc(C2CC(=O)c3c(C)nc(N)nc3C2)c1-c1cccnc1F (stereo not drawn)
3. Cc1nc(N)nc2c1C(=O)CC(c1cccnc1-c1nccs1)C2 (stereo not drawn)

Response:
> 6.00
5.00 to 6.00
5.00 to 6.00

List pIC50 for every entry below, keeping the order given.
1. Cc1nc(N)nc2c1C(=O)CC(c1ccccc1Oc1ccccc1F)C2 (stereo not drawn)
2. CCOc1cccc(-c2cccnc2F)c1C1CC(=O)c2c(C)nc(N)nc2C1 (stereo not drawn)
3. Cc1nc(N)nc2c1C(=O)CC(c1ccccc1Oc1cc[nH]c(=O)c1)C2 (stereo not drawn)
4. Cc1nc(N)nc2c1C(=O)CC(c1ccccc1-c1nccs1)C2 (stereo not drawn)

Response:
1: > 6.00; 2: > 6.00; 3: 5.00 to 6.00; 4: > 6.00

Hi, could you look up pIC50 for each item in my list?
1. Cc1cccc(C2CC(=O)c3c(C)nc(N)nc3C2)c1-c1ccccc1 (stereo not drawn)
2. Cc1nc(N)nc2c1C(=O)CC(C(C)C)C2 (stereo not drawn)

Response:
5.00 to 6.00
< 5.00

Hi, could you look up pIC50 for each item in my list?
1. COC(=O)c1cccc(-c2ccccc2C2CC(=O)c3c(C)nc(N)nc3C2)c1 (stereo not drawn)
2. COc1cccc(-c2ccccc2CO)c1C1CC(=O)c2c(C)nc(N)nc2C1 (stereo not drawn) [Compound 105]
3. COc1cccc(-c2ccccc2CO)c1C1CC(=O)c2c(C)nc(N)nc2C1 (stereo not drawn) [Compound 106]
4. COc1ncccc1-c1cc(F)ccc1C1CC(=O)c2c(C)nc(N)nc2C1 (stereo not drawn)
5. Cc1nc(N)nc2c1C(=O)CC(c1ccccc1-c1ccc(F)cc1)C2 (stereo not drawn)

Response:
< 5.00
> 6.00
> 6.00
> 6.00
> 6.00

Lab note: each compound below needs its pIC50 filled in.
1. Cc1nc(N)nc2c1C(=O)CC(c1c(OCCN3CCNCC3)cccc1-c1cccnc1F)C2 (stereo not drawn)
2. COc1cccc(-c2ccccc2C2CC(=O)c3c(C)nc(N)nc3C2)c1 (stereo not drawn)

Response:
> 6.00
5.00 to 6.00

* * *

TEST SYSTEM: His-tagged N-terminal ATP binding domain (amino acid residues 9-236) of HSP90α (Homo sapiens)
PROTOCOL DESCRIPTION: HSP90 inhibitor binding potency: TRF competition binding assay
APPLIED CONDITIONS: Table I; read-out: Hsp90 IC50 Range
pIC50: −log10 of the molar value.
Consider the following molecules; for each one, report its pIC50.

MOLECULE: Cc1nc(N)nc2c1C(=O)CC(c1cccnc1C1=CCCCC1)C2 (stereo not shown)
pIC50: > 6.00
--
MOLECULE: Cc1cnc(Oc2ccccc2C2CC(=O)c3c(C)nc(N)nc3C2)s1 (stereo not shown)
pIC50: > 6.00
--
MOLECULE: Cc1ccc(-c2ccccc2C2CC(=O)c3c(C)nc(N)nc3C2)nc1 (stereo not shown)
pIC50: > 6.00
--
MOLECULE: Cc1nc(N)nc2c1C(=O)CC(c1nn(C)cc1-c1cccnc1F)C2 (stereo not shown)
pIC50: > 6.00
--
MOLECULE: Cc1nc(N)nc2c1C(=O)CC(c1c(C3CCCCC3)cnn1C)C2 (stereo not shown)
pIC50: > 6.00

# return pIC50 for each item in the list
1. Cc1nc(N)nc2c1C(=O)CC(c1ccccc1-c1ccc(F)nc1)C2 (stereo not shown)
2. CC(=O)c1cccc(-c2ccccc2C2CC(=O)c3c(C)nc(N)nc3C2)n1 (stereo not shown)
3. COc1cccc(C2CCCCC2)c1C1CC(=O)c2c(C)nc(N)nc2C1 (stereo not shown) [Compound 20]
4. Cc1ccc(Oc2ccccc2C2CC(=O)c3c(C)nc(N)nc3C2)cc1 (stereo not shown)
5. Cc1nc(N)nc2c1C(=O)CC(c1ccccc1-c1ncccn1)C2 (stereo not shown)
6. Cc1nc(N)nc2c1C(=O)CC(c1ccccc1Oc1ccc(F)cc1)C2 (stereo not shown)

Response:
1: > 6.00; 2: 5.00 to 6.00; 3: < 5.00; 4: < 5.00; 5: > 6.00; 6: 5.00 to 6.00

Return reported pIC50 values for all items listed beneath this line.
1. Cc1nc(N)nc2c1C(=O)CC(c1ccc(F)cc1-c1cncnc1)C2 (stereo not shown)
2. Cc1cccc(-c2ccccc2C2CC(=O)c3c(C)nc(N)nc3C2)c1 (stereo not shown)
3. Cc1nc(N)nc2c1C(=O)CC(c1ccccc1-c1cncc3ccccc13)C2 (stereo not shown)
4. Cc1nc(N)nc2c1C(=O)CC(c1cccc(-c3cccnc3F)c1)C2 (stereo not shown)
5. Cc1cccc(-c2ccccc2C2CC(=O)c3c(C)nc(N)nc3C2)n1 (stereo not shown)
6. CCOc1ccccc1C1CC(=O)c2c(C)nc(N)nc2C1 (stereo not shown)
7. Cc1nc(N)nc2c1C(=O)CC(c1ccccc1-c1cccnc1F)C2 (stereo not shown)

Response:
1: > 6.00; 2: 5.00 to 6.00; 3: 5.00 to 6.00; 4: < 5.00; 5: < 5.00; 6: > 6.00; 7: > 6.00

Prompt: Value lookup for pIC50; key = Cc1nc(N)nc2c1C(=O)CC(c1cnccc1-c1ccccc1)C2 (stereo not shown)
Response: > 6.00

* * *

TEST SYSTEM: His-tagged N-terminal ATP binding domain (amino acid residues 9-236) of HSP90α (Homo sapiens, UniProt P07900)
PROTOCOL DESCRIPTION: HSP90 inhibitor binding potency: TRF competition binding assay
APPLIED CONDITIONS: Table II; read-out: Hsp90 IC50 Range
QUANTITY KIND: IC50

# example entries with known answers
MOLECULE: CCc1cccc(-n2ccnc2C2CC(=O)c3c(C)nc(N)nc3C2)n1 (stereo not drawn) [Compound 201]
IC50: 1000 to 10000 nM

MOLECULE: COc1cccc(-c2scnc2[C@@H]2CC(=O)c3c(C)nc(N)nc3C2)n1 [Compound 298]
IC50: < 1000 nM

MOLECULE: Nc1ncc2c(n1)CC(c1ccccc1-c1cccnc1F)CC2=O (stereo not drawn) [Compound 243]
IC50: < 1000 nM

MOLECULE: CCc1nc(N)nc2c1C(=O)CC(c1ccc(F)cc1-c1cccnc1F)C2 (stereo not drawn) [Compound 319]
IC50: 1000 to 10000 nM

Count: 3. Required value per item: IC50.
1. COc1cccc(-n2ccnc2[C@@H]2CC(=O)c3c(C)nc(N)nc3C2)n1 [Compound 204]
2. COc1nc(-c2cc(F)ccc2[C@@H]2CC(=O)c3c(C)nc(N)nc3C2)cnc1C [Compound 332]
3. COc1cncc(-c2cc(F)ccc2[C@H]2CC(=O)c3c(C)nc(N)nc3C2)n1 [Compound 225]

Response:
1. < 1000 nM
2. < 1000 nM
3. 1000 to 10000 nM

Report IC50 for each item below.
1. Cc1nc(N)nc2c1C(=O)CC(c1c(F)cccc1-c1cncnc1)C2 (stereo not drawn) [Compound 218]
2. C#Cc1cccc(-n2ccnc2C2CC(=O)c3c(C)nc(N)nc3C2)c1 (stereo not drawn) [Compound 197]

Response:
["< 1000 nM", "< 1000 nM"]
